Values compiled from ChEMBL document CHEMBL1961873.

Target: Serine/threonine-protein kinase Sgk2 (Homo sapiens) (UniProt Q9HBY8);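 also: each value is a mean percent inhibition of SGK2 from the GSK PKIS kinase screen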
Sequence (whole entry): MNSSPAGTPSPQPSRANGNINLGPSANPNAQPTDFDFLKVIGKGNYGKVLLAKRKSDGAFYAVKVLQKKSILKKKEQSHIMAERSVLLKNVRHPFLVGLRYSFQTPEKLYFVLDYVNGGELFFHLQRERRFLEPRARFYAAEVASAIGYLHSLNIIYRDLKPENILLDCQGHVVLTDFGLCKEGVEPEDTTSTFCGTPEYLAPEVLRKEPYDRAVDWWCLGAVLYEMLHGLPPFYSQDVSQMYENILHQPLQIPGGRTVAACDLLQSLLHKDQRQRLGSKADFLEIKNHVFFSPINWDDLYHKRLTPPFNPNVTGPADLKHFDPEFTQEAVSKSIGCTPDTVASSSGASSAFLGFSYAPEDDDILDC
Settings: at 0.1 µM
Measured Parameter: inhibition

{"columns": ["Query Smiles", "Tested Target", "inhibition"],
 "data": [
  ["CNC(=O)c1ncccc1Nc1nc(Nc2cc3c(cc2OC)CCCN3C(=O)CN(C)C)nc2[nH]ccc12", "Serine/threonine-protein kinase Sgk2 (Homo sapiens) (UniProt Q9HBY8)", "0.57%"],
  ["CCOc1ccc2c(-c3ccnc(Nc4cc(OC)cc(C(F)(F)F)c4)n3)cnn2n1", "Serine/threonine-protein kinase Sgk2 (Homo sapiens) (UniProt Q9HBY8)", "0.96%"],
  ["O=C1Nc2ccccc2/C1=C1\\CCc2cc(O)ccc21", "Serine/threonine-protein kinase Sgk2 (Homo sapiens) (UniProt Q9HBY8)", "2.24%"],
  ["COc1cc(N2CCN(C(C)C)CC2)ccc1Nc1nc(Nc2cccc3ncccc23)c2cc[nH]c2n1", "Serine/threonine-protein kinase Sgk2 (Homo sapiens) (UniProt Q9HBY8)", "-3.32%"],
  ["Fc1cccc(COc2ccc(Nc3ncncc3C#Cc3ccccc3)cc2Cl)c1", "Serine/threonine-protein kinase Sgk2 (Homo sapiens) (UniProt Q9HBY8)", "5.33%"]
]}

Please give measured inhibition of the following entry: c1ccc(-c2n[nH]cc2-c2ccnc(-c3ccc(OCCn4ccnc4)cc3)c2)nc1
0.56%

Please give measured inhibition of the following entry: Cn1c(-c2nonc2N)nc2cnccc21
5.57%

Please give measured inhibition of the following entry: CNC(=O)c1cncc(/C=C/c2ccccc2C)c1
2.67%

Please give measured inhibition of the following entry: NC(=O)c1ccc2c(-c3ccnc(NCCCO)n3)c(-c3ccc(F)cc3)nn2c1
4.31%

Please give measured inhibition of the following entry: COc1ccc(-c2nn3ncccc3c2-c2ccnc(Nc3ccc(F)c(F)c3)n2)cc1
5.4%

Please give measured inhibition of the following entry: COc1cc(N2CCN(C(C)C)CC2)ccc1Nc1nc(Nc2cccc(F)c2C(=O)O)c2cc[nH]c2n1
0.2%

Please give measured inhibition of the following entry: CS(=O)(=O)CCNCc1ccoc1-c1ccc2ncnc(Nc3ccc(OCc4ccccc4)cc3)c2c1
2.28%

Please give measured inhibition of the following entry: CNC(=O)c1sc(-n2cnc3cc(OC)c(OC)cc32)cc1OCc1ccccc1C(F)(F)F
0.8%

Please give measured inhibition of the following entry: Fc1ccc(Nc2nccc(-c3c(-c4ccc(C(F)(F)F)cc4)nn4ncccc34)n2)cc1F
0.8%

Please give measured inhibition of the following entry: O=C(Nc1n[nH]c2nnc(-c3cccnc3)cc12)C1CC1
-0.62%

Please give measured inhibition of the following entry: COc1cc2c(cc1Nc1nc(Nc3cccc(F)c3C(N)=O)c3cc[nH]c3n1)N(C(=O)CN1CCN(C(C)C)CC1)CC2
1.96%
